pKd values for the binders below.
Target: T1, EsCas13d, nuclease-dead (Eubacterium siraeum, UniProt B0MS50, R295A;H300A;R849A;H854A)
T1 sequence: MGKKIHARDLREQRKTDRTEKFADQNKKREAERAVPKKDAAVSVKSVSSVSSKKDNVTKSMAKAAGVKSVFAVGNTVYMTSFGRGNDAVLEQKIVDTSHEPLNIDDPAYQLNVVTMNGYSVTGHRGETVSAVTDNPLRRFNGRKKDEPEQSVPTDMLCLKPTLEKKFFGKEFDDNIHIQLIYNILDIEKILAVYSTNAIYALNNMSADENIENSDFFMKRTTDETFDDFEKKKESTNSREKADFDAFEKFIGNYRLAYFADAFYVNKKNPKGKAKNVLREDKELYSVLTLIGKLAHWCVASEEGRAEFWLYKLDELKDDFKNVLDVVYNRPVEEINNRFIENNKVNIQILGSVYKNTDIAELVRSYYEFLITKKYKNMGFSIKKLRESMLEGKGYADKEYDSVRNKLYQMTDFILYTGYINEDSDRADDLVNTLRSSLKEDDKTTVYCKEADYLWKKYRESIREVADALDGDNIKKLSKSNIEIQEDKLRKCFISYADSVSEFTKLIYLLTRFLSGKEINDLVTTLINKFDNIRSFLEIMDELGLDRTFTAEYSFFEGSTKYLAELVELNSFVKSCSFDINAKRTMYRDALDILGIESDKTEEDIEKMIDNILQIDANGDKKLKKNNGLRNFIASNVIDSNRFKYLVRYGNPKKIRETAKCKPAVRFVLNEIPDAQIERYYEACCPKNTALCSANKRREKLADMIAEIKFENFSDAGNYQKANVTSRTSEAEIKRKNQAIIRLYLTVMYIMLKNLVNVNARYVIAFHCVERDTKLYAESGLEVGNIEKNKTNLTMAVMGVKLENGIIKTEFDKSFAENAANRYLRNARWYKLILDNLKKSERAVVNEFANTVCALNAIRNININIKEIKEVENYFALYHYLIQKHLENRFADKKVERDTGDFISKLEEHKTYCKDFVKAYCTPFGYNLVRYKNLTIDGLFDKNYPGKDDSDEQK
Assay: crRNA (strand 1, pre-loaded); Mg2+; 40 mM Tris-HCl pH 7.5, 150 mM NaCl, 6 mM MgCl2, 1 mM DTT, 0.1% Tween-20, 0.2 mg/ml BSA; 25 C; 10 min per concentration, then washed
Details: tags: His6-TwinStrep-SUMO cleaved; N-terminal SNAP kept (SNAP-Surface 488); label: 3' end held by stalled T7 RNA polymerase
Keep in mind that pKd stands for -log10 of concentration in molar terms.

Binder	pKd
target 1 insA 3' of 10,insG 3' of 4 (mixed) RNA 1: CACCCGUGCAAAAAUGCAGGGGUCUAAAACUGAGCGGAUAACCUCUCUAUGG RNA 2: GGGAAUGGAUCCACAUCUACGAAUUCGUACCAUAGAGAGGUUAAUCCGCGUCACCGAGAUCGGAAGAGCACACGU	8.19
target 1 C6U,U10A (mixed) RNA 1: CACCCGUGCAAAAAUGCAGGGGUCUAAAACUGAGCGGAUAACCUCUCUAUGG RNA 2: GGGAAUGGAUCCACAUCUACGAAUUCGUACCAUAGAGAGGUAAUCUGCUCACCGAGAUCGGAAGAGCACACGU	8.01
target 1 MT 5'PFS GUA 3'PFS AGA (mixed) RNA 1: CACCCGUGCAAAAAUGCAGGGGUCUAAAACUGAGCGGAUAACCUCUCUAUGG RNA 2: GGGAAUGGAUCCACAUCUACGAAUUCGUACCAUAGAGAGGUUAUCCGCUCAAGAAGAUCGGAAGAGCACACGU	7.90

Now for another entry.
Which pKd is reported for this binder? target 1 insG 3' of 6,insA 3' of 5 (mixed) RNA 1: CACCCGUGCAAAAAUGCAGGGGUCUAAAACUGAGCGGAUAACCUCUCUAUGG RNA 2: GGGAAUGGAUCCACAUCUACGAAUUCGUACCAUAGAGAGGUUAUCCGGACUCACCGAGAUCGGAAGAGCACACGU
7.71
